- Tested on: Klebsiella pneumoniae
- Assay protocol: Antibacterial activity against Klebsiella pneumoniae at a concentration of 40 ug/mL
- Assay type: functional
Below, each entry is listed with its recorded Zone of inhibition.
Write down the numeric answer in mm and omit the unit.

Illustrative cases are given below, each with its answer.
NS(=O)(=O)c1ccc(NCNC(=O)c2ccc(NC(=O)c3cccnc3)cc2)cc1 11.1
Cc1cc(NS(=O)(=O)c2ccc(N)cc2)no1 11.6
O=C(NCNc1ccc(S(=O)(=O)Nc2ncccn2)cc1)c1ccc(NC(=O)c2cccnc2)cc1 18.9
Nc1ccc(S(=O)(=O)Nc2ncccn2)cc1 27

// next entry
The reported value for Cc1cc(NS(=O)(=O)c2ccc(NCNC(=O)c3ccc(NC(=O)c4cccnc4)cc3)cc2)no1 in terms of Zone of inhibition is 12.5

###

- Assay protocol: Toxic effect after oral administration (6400 mg/kg) was determined in mice; No effect
- Format: toxicity, organism-based
- Test context: mouse, in vivo
Parameter: Toxic effect

Illustrative cases are given below, each with its answer.
O=C(NCNc1ccc(S(=O)(=O)Nc2ncccn2)cc1)c1ccc(NC(=O)c2cccnc2)cc1 Not Active
N=C(N)NS(=O)(=O)c1ccc(NCNC(=O)c2ccc(NC(=O)c3cccnc3)cc2)cc1 Not Active
Cc1nnc(NS(=O)(=O)c2ccc(NCNC(=O)c3ccc(NC(=O)c4cccnc4)cc3)cc2)s1 Not Active
Cc1cc(C)nc(NS(=O)(=O)c2ccc(NCNC(=O)c3ccc(NC(=O)c4cccnc4)cc3)cc2)n1 Not Active

The reported value for Cc1cc(NS(=O)(=O)c2ccc(NCNC(=O)c3ccc(NC(=O)c4cccnc4)cc3)cc2)no1 in terms of Toxic effect is Not Active

###

Below, each entry is listed with its recorded Zone of inhibition.
- System: Bacillus subtilis
- Assay protocol: Antibacterial activity against Bacillus subtilis at a concentration of 40 ug/mL
- Assay type: functional
Write down the numeric answer in mm and omit the unit.

Illustrative cases are given below, each with its answer.
Compound	Unit abbrev	Reported measurement
Cc1cc(NS(=O)(=O)c2ccc(N)cc2)no1 [SULFAMETHOXAZOLE]	mm	22.8
Cc1cc(NS(=O)(=O)c2ccc(NCNC(=O)c3ccc(NC(=O)c4cccnc4)cc3)cc2)no1	mm	14.1
Nc1ccc(S(=O)(=O)Nc2ncccn2)cc1 [SULFADIAZINE]	mm	20.8
Cc1cc(C)nc(NS(=O)(=O)c2ccc(N)cc2)n1 [SULFAMETHAZINE]	mm	15.4
Cc1cc(C)nc(NS(=O)(=O)c2ccc(NCNC(=O)c3ccc(NC(=O)c4cccnc4)cc3)cc2)n1	mm	6

// next entry
The reported value for O=C(NCNc1ccc(S(=O)(=O)Nc2ncccn2)cc1)c1ccc(NC(=O)c2cccnc2)cc1 in terms of Zone of inhibition is 15.4
